- MEASUREMENT NOTES: Cmax in CD1 mouse at 1 mg/kg, iv administered as bolus dose
- Format: ADME, organism-based
- Set-up: dose 1 mg/kg, route intravenous
- CONDITION LABEL: in vivo
RECORDED ENDPOINT: Cmax (µM)

COMPOUND	UNIT NAME	Cmax
CN1CC(C(=O)NCCCc2ccc(Cl)c(Cl)c2)=C(O)C1=O	µM	32

(1) Cn1ccc(C(=O)NCCCc2ccc(Cl)c(Cl)c2)c(O)c1=O
(2) CCN1CC(C(=O)NC(C)CCc2ccc(Cl)c(Cl)c2)=C(O)C1=O (stereo in doubt; 7c)
QUERY: Please indicate which entry, 1 or 2 , has the lower recorded Cmax value. Refer to your chosen item by its label in the answer.
RESULT: 1
